The reported measurements were obtained from ChEMBL document CHEMBL2021872.

System: CCRF-CEM
assay protocol: Cytotoxicity against human CEM cells after 3 days
Format: cell-based
reported conditions: 72 h
assay readout: CC50 (µM)

>>> endpoint_value("COC(=O)N[C@H](C(=O)N1CCC[C@H]1c1ncc(-c2ccc(-c3ccc(-c4ccc(-c5cnc([C@@H]6CCCN6C(=O)[C@@H](NC(=O)OC)C(C)C)[nH]5)cc4)nc3)cc2)[nH]1)C(C)C")
2.3
>>> endpoint_value("COC(=O)N[C@H](C(=O)N1CCC[C@H]1c1ncc(-c2ccc(Oc3ccc(-c4cnc([C@@H]5CCCN5C(=O)[C@@H](NC(=O)OC)C(C)C)[nH]4)cc3)cc2)[nH]1)C(C)C")
16
>>> endpoint_value("COC(=O)N[C@H](C(=O)N1CCC[C@H]1c1ncc(-c2ccc(-c3cccc(-c4ccc(-c5cnc([C@@H]6CCCN6C(=O)[C@@H](NC(=O)OC)C(C)C)[nH]5)cc4)c3)cc2)[nH]1)C(C)C")
3
>>> endpoint_value("COC(=O)N[C@H](C(=O)N1CCC[C@H]1c1ncc(-c2ccc(-c3ccc(-c4ccc(-c5cnc([C@@H]6CCCN6C(=O)[C@@H](NC(=O)OC)C(C)C)[nH]5)cn4)cc3)cc2)[nH]1)C(C)C")
31

====

Test system: PBMC
assay protocol: Cytotoxicity against human PBMC after 3 days
Assay type: cell-based
reported conditions: 72 h
Measured CC50 accompanies every entry in the list below.
assay readout: CC50 (µM)

>>> endpoint_value("COC(=O)N[C@H](C(=O)N1CCC[C@H]1c1ncc(-c2ccc(Oc3ccc(-c4cnc([C@@H]5CCCN5C(=O)[C@@H](NC(=O)OC)C(C)C)[nH]4)cc3)cc2)[nH]1)C(C)C")
16
>>> endpoint_value("COC(=O)N[C@H](C(=O)N1CCC[C@H]1c1ncc(-c2ccc(-c3cccc(-c4ccc(-c5cnc([C@@H]6CCCN6C(=O)[C@@H](NC(=O)OC)C(C)C)[nH]5)cc4)c3)cc2)[nH]1)C(C)C")
18
>>> endpoint_value("COC(=O)N[C@H](C(=O)N1CCC[C@H]1c1ncc(-c2ccc(-c3ccc(-c4ccc(-c5cnc([C@@H]6CCCN6C(=O)[C@@H](NC(=O)OC)C(C)C)[nH]5)cc4)nc3)cc2)[nH]1)C(C)C")
3.9
>>> endpoint_value("COC(=O)N[C@H](C(=O)N1CCC[C@H]1c1ncc(-c2ccc(NS(=O)(=O)c3ccc(-c4cnc([C@@H]5CCCN5C(=O)[C@@H](NC(=O)OC)C(C)C)[nH]4)cc3)cc2)[nH]1)C(C)C")
15

====

System: CCRF-CEM
assay protocol: Cytotoxicity against human CEM cells after 3 days
Format: cell-based
reported conditions: 72 h
assay readout: CC50

>>> endpoint_value("COC(=O)N[C@H](C(=O)N1CCC[C@H]1c1ncc(-c2ccc(NS(=O)(=O)c3ccc(-c4cnc([C@@H]5CCCN5C(=O)[C@@H](NC(=O)OC)C(C)C)[nH]4)cc3)cc2)[nH]1)C(C)C")
"13 µM"
>>> endpoint_value("COC(=O)N[C@H](C(=O)N1CCC[C@H]1c1ncc(-c2ccc(-c3ccc(-c4cnc([C@@H]5CCCN5C(=O)[C@@H](NC(=O)OC)C(C)C)[nH]4)s3)cc2)[nH]1)C(C)C")
"48 µM"
>>> endpoint_value("COC(=O)N[C@H](C(=O)N1CCC[C@H]1c1ncc(-c2ccc(-c3cn(-c4ccc(-c5cnc([C@@H]6CCCN6C(=O)[C@@H](NC(=O)OC)C(C)C)[nH]5)cc4)nn3)cc2)[nH]1)C(C)C")
"5 µM"
>>> endpoint_value("COC(=O)N[C@H](C(=O)N1CCC[C@H]1c1ncc(-c2ccc(-c3ccc(-c4ccc(-c5ccc(-c6cnc([C@@H]7CCCN7C(=O)[C@@H](NC(=O)OC)C(C)C)[nH]6)cc5)cc4)cc3)cc2)[nH]1)C(C)C")
"> 100 µM"
>>> endpoint_value("COC(=O)N[C@H](C(=O)N1CCC[C@H]1c1ncc(-c2ccc(-c3ccc(-c4ccc(-c5cnc([C@@H]6CCCN6C(=O)[C@@H](NC(=O)OC)C(C)C)[nH]5)cc4)s3)cc2)[nH]1)C(C)C")
"12 µM"

====

System: Vero
assay protocol: Cytotoxicity against african green monkey Vero cells after 3 days
Type: cell-based
reported conditions: chlorocebus sabaeus, 72 h
Measured CC50 accompanies every entry in the list below.
assay readout: CC50 (µM)

>>> endpoint_value("COC(=O)N[C@H](C(=O)N1CCC[C@H]1c1ncc(-c2ccc(Oc3ccc(-c4cnc([C@@H]5CCCN5C(=O)[C@@H](NC(=O)OC)C(C)C)[nH]4)cc3)cc2)[nH]1)C(C)C")
19
>>> endpoint_value("COC(=O)N[C@H](C(=O)N1CCC[C@H]1c1ncc(-c2ccc(-c3ccc(-c4ccc(-c5cnc([C@@H]6CCCN6C(=O)[C@@H](NC(=O)OC)C(C)C)[nH]5)cc4)nc3)cc2)[nH]1)C(C)C")
6.5
>>> endpoint_value("COC(=O)N[C@H](C(=O)N1CCC[C@H]1c1ncc(-c2ccc(-c3ccc(-c4cnc([C@@H]5CCCN5C(=O)[C@@H](NC(=O)OC)C(C)C)[nH]4)s3)cc2)[nH]1)C(C)C")
99
